experiment: Toxicity in human HCT116 cells xenografted nude mouse assessed as mortality at 6.25 mg/kg, ip
Format: organism-based, HCT-116
Parameters: dose 6.25 mg/kg, route intraperitoneal
condition: in vivo, read-out: Activity

smiles.record: COc1cc2c3c(c4ccc(F)cc4c2cc1OC)C[C@@H]1CCCN1C3
mortality (%): 10

====

Test system: A549
experiment: Cytotoxicity against human A549 cells after 96 hrs by […] assay
Type: functional, cell-based
condition: A549, 96 h
pIC50: −log10 of the molar value.
Entries and their pIC50

compound: COc1cc2c3c(c4ccc(O)cc4c2cc1OC)[C@H](O)[C@H]1CCCN1C3
pIC50: 6.09
--
compound: COc1cc2c3c(c4ccc(F)cc4c2cc1OC)C[C@@H]1CCCN1C3
pIC50: 7.29
--
compound: COc1cc2c3c(c4ccc(OC(C)=O)cc4c2cc1OC)C[C@@H]1CCCN1C3
pIC50: 8.55
--
compound: COc1cc2c3c(c4ccc(O)cc4c2cc1OC)C[C@@H]1CCCN1C3
pIC50: 9.22
--
compound: COc1cc2c3c(c4ccc(O)cc4c2cc1OC)[C@@H](O)[C@H]1CCCN1C3
pIC50: 7.51
--
compound: COc1cc2c3c(c4ccccc4c2cc1OC)C[C@@H]1CCCN1C3
pIC50: 7.31
--
compound: COc1cc2c3c(c4ccc(O)cc4c2cc1OC)[C@@H](O)[C@@H]1CCCN1C3
pIC50: 7.28
--
compound: CCOc1cc2c3c(c4ccc(O)cc4c2cc1OCC)C[C@@H]1CCCN1C3
pIC50: 7.37
--
compound: COc1cc2c3c(c4ccc(O)cc4c2cc1OC)C[C@H]1CCCN1C3
pIC50: 7.24
--
compound: COc1cc2c3c(c4cccc(O)c4c2cc1OC)C[C@@H]1CCCN1C3
pIC50: 8.26
--
compound: CCc1ccc2c3c(c4cc(OC)c(OC)cc4c2c1)CN1CCC[C@H]1C3
pIC50: 6.36
--
compound: Oc1ccc2c3c(c4cc5c(cc4c2c1)OCO5)CN1CCC[C@H]1C3
pIC50: 6.41
--
compound: COc1cc2c3c(c4ccc(O)cc4c2cc1OC)[C@H](O)[C@@H]1CCCN1C3 [TYLOPHORIDICINE E]
pIC50: 8.57
--
compound: COc1ccc2c3c(c4cc(OC)c(OC)cc4c2c1)CN1CCC[C@H]1C3
pIC50: 7.36
--
compound: COc1cc2c3c(c4cc(O)ccc4c2cc1OC)C[C@@H]1CCCN1C3
pIC50: 7.67

Taken from ChEMBL document CHEMBL1833818.
